- Test system: MS2 coat protein
- Protocol text: apparent KD of MS2 coat protein; designed switch direction (-1 OFF switch, 1 ON switch): -1; higher = weaker reporter binding
- Condition context: Eterna round: R95; input ligand: none
Result type: apparent KD of MS2 coat protein (µM)

Macromolecule sequence: GGUUGGCGAGGAUAUACAUGAGGAUCACCCAUGUGAGAUAAAAAAGUGAGGAAGAAAAGUAGAAGGCGCUGACG [salish99_ex3_r3_010] (puzzle: Exclusion 3)
Observed: 0.0851
//
Macromolecule sequence: AGUACUAACACCGUUGUGUUAGUACAAUAAGCUUGUGAAACAUGAGGAUCACCCAUGUCCUCAUAAGCUCGUCUUAU [salish99_TOv2_r3_071] (puzzle: Sensor v3, turn-off variant 2)
Observed: 0.0162
//
Macromolecule sequence: AAUAAGCAAGGAUAUACGACGAAAAGCGUCAGUGGGCGAUGACAUGAGGAUCACCCAUGUAGAAGGUGCACAUC [Isragela] (puzzle: Exclusion 2)
Observed: 0.203
//
Macromolecule sequence: UAGAAGCUCAGGGAGUGAGACAUGAGGAUCACCCAUGUGGUGGUAGGGAACAAGCUUUUUGCACGUACUUAUGAGGA [JR_SV3TOV1_Sub006] (puzzle: Sensor v3, turn-off variant 1)
Observed: 0.189
//
Macromolecule sequence: CGUGACUGAGGAUAUCUAUAAUGUCACAUGAGGAUCACCCAUGUCCAGCGAAAGCUGGAGGGAGAAGGCAGUCACG [Fiskers Ex 5 - 33] (puzzle: Exclusion 5)
Observed: 0.0746

* * *

- Tested on: MS2 coat protein
- Protocol text: apparent KD of MS2 coat protein; higher = weaker reporter binding
- Condition context: Eterna round: R107; input ligand: arginine 13.2 mM
Listed next: entries and their corresponding apparent KD of MS2 coat protein.
Result type: apparent KD of MS2 coat protein (nM)

Macromolecule sequence: UGUCCUCAUGCGGCCGCCACUGUCGGCCGCCACUAAACCUGAGGAUCACCCGGGUAGGACCGGGACAGGACCGGGCAUGGGUGCU [#DoubleAptamer 4 #AlternativeMS2]
Target of assay: MS2 coat protein
Result type: apparent KD of MS2 coat protein
Observed: 47.4
--
Macromolecule sequence: AGUAGUUGACAAAAGUCAGCUACAAUUGAAGGAGCGGGAUCCUUCCCAGGUAGGUCGCAAUAACAUGAGGAUCACCCAUGUCAAA [ArgAS 4 #BothOrNeither #OpenEnded]
Target of assay: MS2 coat protein
Result type: apparent KD of MS2 coat protein
Observed: 15.9
--
Macromolecule sequence: GCGCGGCGAGUGCGGCGUGUUCCGCUCCGUCGAGGACCGGUACGGCCGCCACUCGACAUGAGGAUCACCCAUGUCGCCGCGCGCG [Exclusion - Tryptophan A Attempt #3]
Target of assay: MS2 coat protein
Result type: apparent KD of MS2 coat protein
Observed: 13.9

* * *

- Test system: K4 kissing-loop RNA reporter;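 further: bound reporter read as fluorescence of individual clusters on recovered sequencing chips by microscopy, with normalized cluster intensities fitted with a binding model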
- Protocol text: apparent KD of K4 kissing-loop reporter; higher = weaker reporter binding
- Condition context: Eterna round: R107; input ligand: none

Macromolecule sequence: UAUUCUAAUGCGGCCGCCACUGGAAGUGAUGUUUCCUCUGGCUAUCAUUUCGGACGGUAUUGUCCCAGGACCGGGCAUCCCUCUC [theeternabot_exclusion_KL_Trp_B_4]
apparent KD of K4 kissing-loop reporter, nM: 106

Macromolecule sequence: GGAUAGGACGGAGGAUAUGGUAGUGAUGUUACCAAACUGGUUAAACAUGUCAGAAAACUGGCAUGACCAGAAGGCCGUCCUAUCG [FmnBX 27 G10+C76]
apparent KD of K4 kissing-loop reporter, nM: 69.6

Macromolecule sequence: UCUGUUGUAUAUGAUACCAGCAGUGAGAGACAGGAAGUAUAGUGAUGUUAUAUGAGAGAAUGCCCUUGGCAGCGUGUGCGGUUGG [SSTheophylB.W]
apparent KD of K4 kissing-loop reporter, nM: 155

Macromolecule sequence: ACGUCUCGUAAACUCGUGGUUUCGAUCGAUACCAGUAGCGAGAGUUACCCUUGGCAGCGACAUGAGUGAUGUUCAUGUACGAAGA [KL-XTheoA2]
apparent KD of K4 kissing-loop reporter, nM: 93.1

Macromolecule sequence: AAGGUUGUGCAUGGGAGUGAUGUUCCCAAGCAGGAUAUCGCUCACGCGAGAAGGGCUAGCACAACCGCUCAAGAAACUUGAGCAA [Omei KL FMN A SS C v5]
apparent KD of K4 kissing-loop reporter, nM: 147

Macromolecule sequence: GGGAAGGGACACAAGGAGGAACGAAGGGAAGGAGCGCCGGAGGAGGCAGGUAGGUCGCCCAACCAGUGAUGUUGGAAUUUAAUCC [Default title]
apparent KD of K4 kissing-loop reporter, nM: 287
